Provide the reported TGI of each item.
tested on: MALME-3M melanoma; assay: NCI tumour cell line growth inhibition, 48 h
Write the answer as a number in µM, unit excluded.

Fill in the recorded TGI for this compound, with MALME-3M melanoma as test system: CN(C)CCNC(=O)c1cccc2nc3c(ccc4ccccc43)nc12
3.05

Please give the result for COc1cc2c3c(c1Oc1nnnn1-c1ccccc1)-c1c(ccc4c1OCO4)C[C@H]3N(C)CC2 too.
34.8

Again, but for COc1cc(/C=C/c2cc(/C=C/c3ccc(O)c(OC)c3)n(C(=O)Cc3ccccc3)n2)ccc1O
4.98

Same question, Clc1ccc(Cc2nc3cc(Cl)c(Cl)cc3n2CC2CCCN3CCCCC23)cc1Cl (stereo not given) this time
3.91

What do we get for O=C1c2c(O)ccc(O)c2C(=O)c2c(NCCNC(=O)C(O)C(O)C(O)C(O)CO)ccc(NCCNC(=O)C(O)C(O)C(O)C(O)CO)c21 (stereo not given) ?
2.65

This collection of values is drawn from PubChem BioAssay (NCI).
